Assay: Oral bioavailability in Sprague-Dawley rat at 50 mg/kg measured upto 24 hrs by LC/MS/MS analysis
Type: ADME, organism-based
Details: in vivo
Measurement type: bioavailability (%)
Numeric answer only, unit % assumed.

> print(dat)
                    structure.smiles.string   val
1  Cl.O=c1cc(N2CCN(CC3CCCCC3)CC2)sc2c([N+](=O)[O-])cc(C(F)(F)F)cc12  5.07
2  O=c1cc(N2CCN(CC3CCCCC3)CC2)sc2c([N+](=O)[O-])cc(C(F)(F)F)cc12  4.87

Now for the compound whose bioavailability we want.
Tell me the measured bioavailability of `O=C(O)/C=C\C(=O)O.O=c1cc(N2CCN(CC3CCCCC3)CC2)sc2c([N+](=O)[O-])cc(C(F)(F)F)cc12` , please.
12.5

Sourced from ChEMBL document CHEMBL5352469
